# Tested Target: TYK2 JH1 catalytic (human)
# Measurement Description: KINOMEscan competition binding
# Details: compound 10.0 µM
Consider the cut-off 40%. If the recorded kinase still bound, per cent of control is strictly smaller, the label is fulfilled; if not, the label is not fulfilled.

QUERY: Quick check: kinase still bound, per cent of control of CN1C(=O)c2ccccc2N(C)c2nc(Nc3ccc(N4CCC(O)CC4)cc3)ncc21 under 40%?
RESULT: fulfilled

QUERY: Lab log: compare recorded kinase still bound, per cent of control with 40%; is it strictly lower for Nc1cccc(-c2cc(/C=C3\SC(=O)NC3=O)c[nH]c2=O)c1 ?
RESULT: fulfilled

QUERY: Strictly below 40% in kinase still bound, per cent of control? COc1cc(N2CCC(O)CC2)ccc1Nc1ncc2c(n1)N1CCc3cccc(c31)C(=O)N2C
RESULT: not fulfilled

QUERY: A record lists CN1C(=O)c2ccccc2N(C)c2nc(Nc3ccc(N4CCC(O)CC4)cn3)ncc21 . Is its kinase still bound, per cent of control below 40%?
RESULT: fulfilled

QUERY: In the record for CN1CCN(c2ccc(C(=O)Nc3ncc4c(n3)N(C)c3ccccc3C(=O)N4C)cc2)CC1 , is kinase still bound, per cent of control less than 40%?
RESULT: not fulfilled

QUERY: Could you please tell me whether kinase still bound, per cent of control recorded for CN1C(=O)[C@H]2CCC[C@H]2N(C2CCCC2)c2nc(Nc3ccc(C(N)=O)cc3)ncc21 is less than 40%?
RESULT: fulfilled

QUERY: Regarding O=C1NC(=O)/C(=C/c2c[nH]c(=O)c(-c3ccc(N4CCNCC4)nc3)c2)S1 , kindly confirm whether its kinase still bound, per cent of control is beneath 40%.
RESULT: fulfilled

QUERY: Is it true that kinase still bound, per cent of control reported for COc1cc(N2CCN(C)CC2)ccc1Nc1ncc2c(n1)Nc1ccccc1NC2=O is less than 40%?
RESULT: not fulfilled

QUERY: Consider the compound COc1cc(N2CCN(C)CC2)ccc1Nc1ncc2c(n1)N(C)c1sccc1C(=O)N2C . Is its kinase still bound, per cent of control strictly less than 40%?
RESULT: not fulfilled
